Biological target: α4β2* (non-α6) nAChRs (Mus musculus, UniProt O70174+Q9ERK7)
Construct: from tissue; host or cells: striatal / olfactory tubercle synaptosomes of WT and α6L9′S mice
Sequence (Q9ERK7 26-501): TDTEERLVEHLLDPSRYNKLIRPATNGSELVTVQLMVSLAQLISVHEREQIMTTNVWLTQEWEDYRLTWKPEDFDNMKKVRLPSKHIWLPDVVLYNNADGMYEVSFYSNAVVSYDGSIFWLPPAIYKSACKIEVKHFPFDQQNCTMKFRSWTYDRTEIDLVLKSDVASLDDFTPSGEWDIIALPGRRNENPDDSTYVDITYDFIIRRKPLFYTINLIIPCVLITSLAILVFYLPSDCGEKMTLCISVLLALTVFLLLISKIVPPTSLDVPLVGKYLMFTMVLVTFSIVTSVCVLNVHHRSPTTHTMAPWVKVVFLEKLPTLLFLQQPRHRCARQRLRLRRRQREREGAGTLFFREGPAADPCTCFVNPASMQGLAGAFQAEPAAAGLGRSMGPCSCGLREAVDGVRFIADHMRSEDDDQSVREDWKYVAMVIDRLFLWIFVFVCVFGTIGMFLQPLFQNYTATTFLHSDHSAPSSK
Sequence (O70174 31-629): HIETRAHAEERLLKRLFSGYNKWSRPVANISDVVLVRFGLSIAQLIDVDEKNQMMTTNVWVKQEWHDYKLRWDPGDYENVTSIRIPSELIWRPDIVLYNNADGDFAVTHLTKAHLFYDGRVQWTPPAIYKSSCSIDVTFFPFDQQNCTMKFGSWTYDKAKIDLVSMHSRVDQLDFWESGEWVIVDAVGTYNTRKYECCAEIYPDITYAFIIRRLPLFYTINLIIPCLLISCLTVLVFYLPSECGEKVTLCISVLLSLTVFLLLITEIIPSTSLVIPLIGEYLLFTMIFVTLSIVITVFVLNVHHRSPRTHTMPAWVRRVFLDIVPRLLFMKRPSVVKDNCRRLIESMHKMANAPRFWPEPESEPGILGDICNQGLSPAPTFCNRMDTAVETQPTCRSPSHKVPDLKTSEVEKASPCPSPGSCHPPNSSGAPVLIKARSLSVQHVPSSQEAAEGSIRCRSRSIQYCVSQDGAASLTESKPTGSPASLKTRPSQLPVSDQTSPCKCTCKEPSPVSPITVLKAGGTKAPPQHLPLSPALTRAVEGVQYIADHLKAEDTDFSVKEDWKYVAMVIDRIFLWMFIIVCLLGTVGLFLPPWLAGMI
Assay: biochemical
Type: biochemical
Conditions: ST/OT; WT; read-out: EC50 (±SEM), MII-resistant DA release
quantity: EC50 (µM)

• CNCC/C=C/c1cccnc1 [TC 2403] = 2.85

###

Tested on: α6^L9′S mice
Conditions: mouse, in vivo
quantity: effect of antagonist pre-injection on nicotine-stimulated locomotor response

* COc1cc2nc(N3CCN(C(=O)c4ccco4)CC3)nc(N)c2cc1OC [prazosin] | no change was found
* COC(=O)[C@@H]1[C@H]2C[C@H]3c4[nH]c5ccccc5c4CCN3C[C@@H]2CC[C@@H]1O [yohimbine] | no change was found

###

Molecular target: hypersensitive nicotinic receptors in α6L9′S VTA DA neurons (Mus musculus, UniProt Q9ERK7+Q9R0W9, L280S)
Sequence (Q9ERK7 whole entry, looked up, stated change not applied): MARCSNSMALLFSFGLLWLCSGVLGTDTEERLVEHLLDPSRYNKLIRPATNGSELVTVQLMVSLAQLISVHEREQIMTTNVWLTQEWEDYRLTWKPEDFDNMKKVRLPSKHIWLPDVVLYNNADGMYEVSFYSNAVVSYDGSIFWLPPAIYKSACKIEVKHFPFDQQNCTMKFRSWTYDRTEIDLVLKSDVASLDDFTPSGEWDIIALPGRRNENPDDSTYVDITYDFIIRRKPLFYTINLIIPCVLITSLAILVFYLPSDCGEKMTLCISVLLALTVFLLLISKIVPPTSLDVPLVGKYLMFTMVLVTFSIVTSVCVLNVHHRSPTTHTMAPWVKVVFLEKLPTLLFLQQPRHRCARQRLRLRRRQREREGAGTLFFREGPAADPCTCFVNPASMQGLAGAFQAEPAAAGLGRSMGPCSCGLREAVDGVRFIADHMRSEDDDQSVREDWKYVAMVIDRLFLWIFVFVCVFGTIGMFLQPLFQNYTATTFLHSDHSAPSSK
Sequence (Q9R0W9 whole entry, looked up, stated change not applied): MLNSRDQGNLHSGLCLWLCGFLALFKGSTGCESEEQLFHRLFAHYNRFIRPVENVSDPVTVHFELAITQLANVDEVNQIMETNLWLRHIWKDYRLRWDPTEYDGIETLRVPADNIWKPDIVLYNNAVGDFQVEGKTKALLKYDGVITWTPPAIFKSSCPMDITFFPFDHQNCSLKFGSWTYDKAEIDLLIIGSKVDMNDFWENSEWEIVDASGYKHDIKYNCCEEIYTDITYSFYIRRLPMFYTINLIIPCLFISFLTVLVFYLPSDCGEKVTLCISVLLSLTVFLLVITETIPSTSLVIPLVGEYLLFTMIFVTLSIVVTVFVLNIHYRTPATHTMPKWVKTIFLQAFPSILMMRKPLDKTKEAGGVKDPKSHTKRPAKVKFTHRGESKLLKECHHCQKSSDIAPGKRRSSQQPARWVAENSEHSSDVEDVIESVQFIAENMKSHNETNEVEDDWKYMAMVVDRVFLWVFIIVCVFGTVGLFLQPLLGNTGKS
Format: cell-based
quantity: block of whole-cell responses to 1 μM nicotine (%)

• CO[C@H]1CC=C2CCN3CCC4=C(CC(=O)OC4)[C@]23C1 [DHβE, dihydro-β-erythroidine] = 100
• CCN1C[C@]2(COC(=O)c3ccccc3N3C(=O)C[C@H](C)C3=O)CC[C@H](OC)[C@@]34[C@@H]5C[C@H]6[C@H](OC)[C@@H]5[C@](O)(C[C@@H]6OC)[C@@](O)([C@@H](OC)[C@H]23)[C@@H]14 = 0

###

Biological target: α3β4 receptors (UniProt P12392+P32297)
Sequence (P32297 32-505): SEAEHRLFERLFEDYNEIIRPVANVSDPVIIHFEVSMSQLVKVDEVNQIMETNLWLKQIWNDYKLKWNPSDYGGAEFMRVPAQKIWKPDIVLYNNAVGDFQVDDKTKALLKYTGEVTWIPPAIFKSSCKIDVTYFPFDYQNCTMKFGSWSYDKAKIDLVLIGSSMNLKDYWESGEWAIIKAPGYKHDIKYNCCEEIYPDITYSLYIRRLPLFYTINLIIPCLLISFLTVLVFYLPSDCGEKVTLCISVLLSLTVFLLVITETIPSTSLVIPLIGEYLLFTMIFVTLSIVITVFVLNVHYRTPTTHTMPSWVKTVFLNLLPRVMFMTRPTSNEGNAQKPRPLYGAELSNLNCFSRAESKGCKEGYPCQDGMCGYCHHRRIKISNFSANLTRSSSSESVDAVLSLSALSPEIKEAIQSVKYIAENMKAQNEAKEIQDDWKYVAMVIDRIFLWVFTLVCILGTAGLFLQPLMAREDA
Sequence (P12392 21-495): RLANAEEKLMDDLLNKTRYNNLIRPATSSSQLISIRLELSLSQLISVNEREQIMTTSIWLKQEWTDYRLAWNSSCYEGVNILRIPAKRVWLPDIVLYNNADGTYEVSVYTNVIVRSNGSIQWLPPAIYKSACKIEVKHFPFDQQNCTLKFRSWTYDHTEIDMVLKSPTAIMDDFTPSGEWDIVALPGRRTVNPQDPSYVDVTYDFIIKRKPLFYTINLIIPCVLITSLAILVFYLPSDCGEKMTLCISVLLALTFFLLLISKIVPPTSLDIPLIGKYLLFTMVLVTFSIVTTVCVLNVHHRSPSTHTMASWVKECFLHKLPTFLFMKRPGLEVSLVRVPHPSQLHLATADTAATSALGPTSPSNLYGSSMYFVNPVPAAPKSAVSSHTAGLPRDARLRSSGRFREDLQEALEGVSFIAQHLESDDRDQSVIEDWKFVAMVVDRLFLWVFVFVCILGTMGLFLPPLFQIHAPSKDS
Test: Two-electrode voltage clamp, X. laevis oocytes, α3β4
pEC50: −log10 of the molar value.
quantity: pEC50

* CC(=O)OCC[N+](C)(C)C [ACh, acetylcholine] | 3.78

###

Target: α3β4β3 receptors (UniProt P12392+P32297)
Sequence (P32297 32-505): as the sequence (P32297 32-505) above
Sequence (P12392 21-495): as the sequence (P12392 21-495) above
Sequence (Q8BMN3 31-464 partner): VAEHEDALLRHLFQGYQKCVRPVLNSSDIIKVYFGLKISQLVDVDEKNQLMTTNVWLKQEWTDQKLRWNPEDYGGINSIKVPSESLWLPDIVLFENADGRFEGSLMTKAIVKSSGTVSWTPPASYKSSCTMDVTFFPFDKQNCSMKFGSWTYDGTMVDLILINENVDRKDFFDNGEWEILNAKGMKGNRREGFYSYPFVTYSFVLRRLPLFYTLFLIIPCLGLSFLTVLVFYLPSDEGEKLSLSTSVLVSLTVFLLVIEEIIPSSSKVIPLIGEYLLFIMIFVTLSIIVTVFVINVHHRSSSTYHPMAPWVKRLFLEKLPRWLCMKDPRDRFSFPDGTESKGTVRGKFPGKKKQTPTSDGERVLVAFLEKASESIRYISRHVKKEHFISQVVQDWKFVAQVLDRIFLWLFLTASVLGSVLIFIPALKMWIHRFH
Experiment: Two-electrode voltage clamp, X. laevis oocytes, α3β4β3
Procedure: Two-Electrode Voltage-Clamp Electrophysiology. Stage V to VI X. laevis oocytes were isolated as described previously (Quick and Lester, Ion Channels of Excitable Cells, Narahashi T ed., pp 261-279, 1994). Stock RNAs were diluted into diethyl pyrocarbonatetreated water and injected 1 day after isolation. […] Agonist-activated nicotinic receptor responses were measured by two-electrode voltage-clamp recording using a GeneClamp 500 (Molecular Devices, Sunnyvale, Calif.) voltage clamp. […]
quantity: EC50 (µM)

• CC(=O)OCC[N+](C)(C)C [ACh, acetylcholine] = 230

###

System: nAChRs
Type: biochemical, mouse
Conditions: ST/OT; WT; read-out: EC50 (±SEM), Total DA release
quantity: EC50

- CNCC/C=C/c1cccnc1 [TC 2403]: 2.36 µM

Origin of the recorded values: patent US20090100532A1
